Origin of the recorded values: patent US20120020988A1

For each of the binders below, state its Kd.
Target: T1, TSLPR-ECD (extracellular domain of TSLPR) (human, UniProt Q9HC73 23-231)
T1 construct: Obtained by cleavage of a TSLPR-Fc fusion protein expressed in HEK cells; also called analyte 2
T1 sequence: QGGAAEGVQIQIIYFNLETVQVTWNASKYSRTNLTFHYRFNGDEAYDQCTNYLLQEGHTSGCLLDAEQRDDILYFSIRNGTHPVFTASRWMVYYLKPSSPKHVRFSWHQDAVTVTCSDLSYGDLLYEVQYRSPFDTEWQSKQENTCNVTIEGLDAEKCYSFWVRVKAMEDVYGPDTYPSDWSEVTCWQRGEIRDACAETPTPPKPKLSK
Test: SPR (Biacore 3000), antibody captured by anti-IgG, TSLPR-ECD as analyte, 25 °C, 1:1 Langmuir fit
Give bare numbers, in pM.

Before answering, review these 3 worked examples.
TSLPR-012_166, CDR grafted (antibody, V domains shown, Humanized (CDR grafted) variant of hamster TSLPR-012; human kappa and human IgG1 or IgG4(S228P,L235E) appear only as embodiments) VH: QVQLQESGPGLVKPSQTLSLTCTVSGFSITTSGYYWSWIRQHPGKGLEWIGYIGYNSKTYYSPSLKSRVTISRDTSKNQFSLKLSSVTAADTAVYYCARSLYGGYKDAFDSWGQGTLVTVSS VL: DIQMTQSPSSLSASVGDRVTITCRASQSIGTSLHWYQHRPGETPKLLIKFASRSISGVPSRFSGSGSGTDFTLTISSLQPEDFATYYCQQSPGFPPTFGQGTKLEIKR ... 2450
TSLPR-012_189, CDR grafted (antibody, V domains shown, Humanized (CDR grafted) variant of hamster TSLPR-012; human kappa and human IgG1 or IgG4(S228P,L235E) appear only as embodiments) VH: QVQLVESGGGLVKPGGSLRLSCAASGFSITTSGYYWTWIRQFPGKGLEWMGYIGYNSKTYYNPALKSRITISRDNAKNSLYLQMNSLRAEDTAVYYCARSLYGGYKDAFDSWGQGTLVTVSS VL: EIVMTQSPATLSVSPGERATLSCRASQSIGTSLHWYQQKPGQAPRLLIKFASRSITGIPARFSGSGSGTEFTLTISSLQSEDFAVYYCQQSPGFPPTFGQGTKLEIKR ... 600
TSLPR-012 (hamster) (antibody, V domains shown, Parent Armenian hamster monoclonal antibody; the hamster constant regions are not; also called TSLP-012; hamster antibody TSLPR-012) VH: QIQLQESGPGLVKPSQSLSLTCSVTGFSITTSGYYWTWIRQFPGKKLEWMGYIGYNSKTYYNPSLKSRISITRDTSKNQFLLHLNSVTTEDTATYYCARSLYGGYKDAFDSWGQGTLVTVSS VL: DVVLTQTPATLSAIPGERVTMTCKASQSIGTSLHWYQHRPNETPRLLIKFASRSITGIPSRFSGSGSGTDFTLGINNLEAEDFAIYYCQQSPGFPPTFGSGTKLEINR ... 250

We next turn to a different binder, shown below.
Prompt: What value of measured Kd is listed for TSLPR-012_141, CDR grafted (antibody, V domains shown, Humanized (CDR grafted) variant of hamster TSLPR-012; human kappa and human IgG1 or IgG4(S228P,L235E) appear only as embodiments) VH: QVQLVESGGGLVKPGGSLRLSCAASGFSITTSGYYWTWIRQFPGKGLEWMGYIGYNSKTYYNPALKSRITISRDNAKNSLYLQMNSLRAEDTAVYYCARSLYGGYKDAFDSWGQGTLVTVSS VL: DIQMTQSPSSLSASVGDRVTITCRASQSIGTSLHWYQQKPGKAPKLLIKFASRLQSGVPSRFSGSGSGTDFTLTISSLQPEDFATYYCQQSPGFPPTFGQGTKLEIKR ?
Response: 870
